# Tested on: OVCAR-4 ovarian
# test_summary: NCI tumour cell line growth inhibition, 48 h
Where a SMILES comes first, the peptide text is derived from it. [ ]: non-standard residue; d: D form. The star is where a group is joined. Bn2Val = CC(C)[C@@H](C(=O)*)N(Cc1ccccc1)Cc1ccccc1; NH(3,4-diMeO-benzyl) = COc1ccc(CN*)cc1OC; NMeV = CN[C@H](C(=O)O)C(C)C
Entries and their TGI values follow.

- compound: "COc1ccc(N=CN(C)C)c(C)c1"
  cmp: "="
  TGI [µM]: 73.6
- compound: "N#CC(c1ccccc1)N(CCOCCOCCN(C(=O)c1cccc2ccccc12)C(C#N)c1ccccc1)C(=O)c1cccc2ccccc12 (stereo not drawn)"
  cmp: ">"
  TGI [µM]: 100
- compound: "O=c1/c(=C/c2ccc([N+](=O)[O-])o2)sc2n1[C@@H](c1ccc3c(c1)OCO3)C=C(c1cc(F)c(Cl)cc1Cl)N=2"
  cmp: "="
  TGI [µM]: 32.6
- compound: "CCOC(=O)c1c(CN2CCCC2)n(-c2ccccc2)c2cc(Br)c(OC)cc12"
  cmp: ">"
  TGI [µM]: 100
- compound: "Cc1nnc2n1N=C(c1cc(F)c(Cl)cc1Cl)/C(=C/c1ccc3c(c1)OCO3)S2"
  cmp: ">"
  TGI [µM]: 100
- compound: "Cc1cc(N(CCOS(C)(=O)=O)CCOS(C)(=O)=O)ccc1C=Nc1ccc(-c2csc(-c3ccc(Br)cc3)n2)cc1"
  cmp: "="
  TGI [µM]: 84.9
- compound: "c1ccc2c(c1)[nH]c1c2ncc2[nH]c3ccccc3c21"
  cmp: "="
  TGI [µM]: 3.79
- compound: "COc1ccc(CNC(=O)[C@@H]2CCCN2C(=O)[C@@H]2CCCN2C(=O)[C@H](C(C)C)N(C)C(=O)[C@@H](NC(=O)[C@H](C(C)C)N(Cc2ccccc2)Cc2ccccc2)C(C)C)cc1OC (Bn2Val-V[NMeV]PP-{NH(3,4-diMeO-benzyl)})"
  cmp: "="
  TGI [µM]: 42.6
